Listing: IC50 of selected compounds
study target: rat mGlu2 (Rattus norvegicus)
Construct: expressed in transfected cells
Sequence (P31421 19-872): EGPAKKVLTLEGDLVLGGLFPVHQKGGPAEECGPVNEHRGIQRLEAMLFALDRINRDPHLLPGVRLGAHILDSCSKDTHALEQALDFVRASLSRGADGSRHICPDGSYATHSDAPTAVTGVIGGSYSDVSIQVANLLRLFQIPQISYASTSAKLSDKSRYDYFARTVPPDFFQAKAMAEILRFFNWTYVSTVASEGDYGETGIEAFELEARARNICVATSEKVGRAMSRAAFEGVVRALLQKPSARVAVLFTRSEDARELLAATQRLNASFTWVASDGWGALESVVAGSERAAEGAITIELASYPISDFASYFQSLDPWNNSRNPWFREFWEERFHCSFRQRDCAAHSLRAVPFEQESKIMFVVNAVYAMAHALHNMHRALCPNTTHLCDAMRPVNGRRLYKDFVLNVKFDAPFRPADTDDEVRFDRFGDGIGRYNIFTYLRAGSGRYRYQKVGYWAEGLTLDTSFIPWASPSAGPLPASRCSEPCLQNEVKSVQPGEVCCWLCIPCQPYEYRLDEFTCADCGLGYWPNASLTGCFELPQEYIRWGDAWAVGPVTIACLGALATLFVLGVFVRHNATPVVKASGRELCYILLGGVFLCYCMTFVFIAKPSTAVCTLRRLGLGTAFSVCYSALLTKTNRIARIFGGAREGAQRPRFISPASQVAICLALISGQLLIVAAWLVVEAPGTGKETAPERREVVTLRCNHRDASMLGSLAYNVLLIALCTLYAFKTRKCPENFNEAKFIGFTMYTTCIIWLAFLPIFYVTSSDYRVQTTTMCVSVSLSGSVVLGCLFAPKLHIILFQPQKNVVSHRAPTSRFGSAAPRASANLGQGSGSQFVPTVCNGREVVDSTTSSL
experimental protocol: mGlu2 Ca2+ flux assay
Format: cell-based
measurement setup: Gα15 HEK293 cells stably expressing rat mGlu2; glutamate EC80 addition; read-out: rat mGlu2 IC50
recorded endpoint: IC50 (µM)

{"columns": ["compound", "study target", "unit of measure", "bound sign", "reported value"],
 "data": [
  ["NC(=O)c1cn(-c2ccc(F)cc2)c2ccc(CN3CCCC4CCCCC43)cc2c1=O (centres unmarked)", "rat mGlu2 (Rattus norvegicus)", "µM", "=", 0.617],
  ["NC(=O)c1cn(-c2ccc(F)cc2)c2ccc(COc3cccnc3F)cc2c1=O", "rat mGlu2 (Rattus norvegicus)", "µM", "=", 0.883],
  ["CC1CCN(C)CCN1Cc1ccc2c(c1)c(=O)c(C(N)=O)cn2-c1ccc(F)cc1 (centres unmarked)", "rat mGlu2 (Rattus norvegicus)", "µM", "=", 4.04],
  ["NC(=O)c1cn(-c2ccc(F)cc2)c2ccc(NCc3cccnc3)cc2c1=O", "rat mGlu2 (Rattus norvegicus)", "µM", "=", 0.421],
  ["Cc1ncc(CN(C)c2ccc3c(c2)c(=O)c(C(N)=O)cn3-c2ccc(F)cc2)cn1", "rat mGlu2 (Rattus norvegicus)", "µM", "=", 0.153],
  ["CC1CN(Cc2ccc3c(c2)c(=O)c(C(N)=O)cn3-c2ccc(F)cc2)CCO1 (centres unmarked)", "rat mGlu2 (Rattus norvegicus)", "µM", "=", 0.328],
  ["Cc1cc(OCc2ccc3c(c2)c(=O)c(C(N)=O)cn3-c2ccc(F)cc2)ccn1", "rat mGlu2 (Rattus norvegicus)", "µM", "=", 0.421],
  ["NC(=O)c1cn(-c2ccc(F)cc2)c2ccc(COc3ccc(C(F)(F)F)nc3)cc2c1=O", "rat mGlu2 (Rattus norvegicus)", "µM", "=", 1.46],
  ["NC(=O)c1cn(-c2ccc(F)cc2)c2ccc(CN3CCOCC3)cc2c1=O", "rat mGlu2 (Rattus norvegicus)", "µM", "=", 3.91],
  ["CC(Oc1ccc2c(c1)c(=O)c(C(N)=O)cn2-c1ccc(F)cc1)c1ccncc1 (centres unmarked)", "rat mGlu2 (Rattus norvegicus)", "µM", "=", 0.46],
  ["NC(=O)c1cn(-c2ccc(F)cc2)c2ccc(NCCc3ccncc3)cc2c1=O", "rat mGlu2 (Rattus norvegicus)", "µM", "=", 0.444],
  ["CN(Cc1ccc2c(c1)c(=O)c(C(N)=O)cn2-c1ccc(F)cc1)C1CC1", "rat mGlu2 (Rattus norvegicus)", "µM", "=", 0.821],
  ["NC(=O)c1cn(-c2ccc(F)cc2)c2ccc(N3CCCC3c3cccnc3)cc2c1=O (centres unmarked)", "rat mGlu2 (Rattus norvegicus)", "µM", "=", 0.429],
  ["NC(=O)c1cn(-c2ccc(F)cc2)c2c(F)cc(CN3CCC(F)(F)C3)cc2c1=O", "rat mGlu2 (Rattus norvegicus)", "µM", ">", 10],
  ["NC(=O)c1cn(-c2ccc(F)cc2)c2ccc(N3CCC(N4CCOCC4)C3)cc2c1=O (centres unmarked)", "rat mGlu2 (Rattus norvegicus)", "µM", "=", 1.32],
  ["NC(=O)c1cn(-c2ccc(F)cc2)c2ccc(CN3CCCCC3)cc2c1=O", "rat mGlu2 (Rattus norvegicus)", "µM", ">", 10],
  ["CC1CN(Cc2cc(F)c3c(c2)c(=O)c(C(N)=O)cn3-c2ccc(F)cc2)CCO1 (centres unmarked)", "rat mGlu2 (Rattus norvegicus)", "µM", "=", 6.52]
]}
